Where do these numbers come from? They come from patent US20230365675A1.

A collection of binders and their measured FACS binding data
- MEASUREMENT_TARGET: Mutant CD33-GFP M15 (Q171A) on 293FT cells (UniProt P20138)
- Sequence (P20138 18-364 Q171A): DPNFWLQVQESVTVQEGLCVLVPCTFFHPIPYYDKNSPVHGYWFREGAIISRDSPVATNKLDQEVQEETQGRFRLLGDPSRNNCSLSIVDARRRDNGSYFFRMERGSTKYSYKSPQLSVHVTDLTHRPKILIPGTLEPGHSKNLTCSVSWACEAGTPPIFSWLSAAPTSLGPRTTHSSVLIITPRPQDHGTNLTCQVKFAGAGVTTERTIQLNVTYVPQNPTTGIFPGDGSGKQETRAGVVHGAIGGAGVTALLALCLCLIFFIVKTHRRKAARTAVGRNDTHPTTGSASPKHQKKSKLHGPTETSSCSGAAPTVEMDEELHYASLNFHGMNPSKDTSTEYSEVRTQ
- TEST: FACS, mutant CD33-GFP on 293FT cells
Quick one: just the number, no unit, thanks!

Below are worked cases with known answers.
>>> value_observed("sdCD33_5 (VHH, sdAb from a naive llama phage library; also called 413; sdAb413) VHH: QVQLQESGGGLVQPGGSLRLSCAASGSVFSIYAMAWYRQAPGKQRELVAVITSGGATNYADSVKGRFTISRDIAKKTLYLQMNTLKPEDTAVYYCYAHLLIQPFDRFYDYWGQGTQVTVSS")
98.6
>>> value_observed("sdCD33_2 (VHH) VHH: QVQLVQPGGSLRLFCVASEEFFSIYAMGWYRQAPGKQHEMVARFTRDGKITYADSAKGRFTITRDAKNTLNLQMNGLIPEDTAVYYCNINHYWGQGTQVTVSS")
98.7
>>> value_observed("sdCD33_8 (VHH, sdAb from a naive llama phage library; also called 424; sdAb424) VHH: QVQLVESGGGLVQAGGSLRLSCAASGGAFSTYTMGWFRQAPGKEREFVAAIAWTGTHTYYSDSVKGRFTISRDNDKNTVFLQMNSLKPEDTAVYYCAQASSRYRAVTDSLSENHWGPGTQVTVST")
98.7

Here is another binder to look at.
Req: I am curious: what FACS binding data value has been reported for sdCD33_9 (VHH, sdAb from a naive llama phage library; also called 426; sdAb426) VHH: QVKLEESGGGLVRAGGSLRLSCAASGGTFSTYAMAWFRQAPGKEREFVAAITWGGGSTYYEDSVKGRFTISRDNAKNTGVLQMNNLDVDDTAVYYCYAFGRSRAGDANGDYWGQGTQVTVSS ?
Resp: 99.3
